Value source: ChEMBL document CHEMBL1201862

# Test system: Protein Wnt-3a (Mus musculus, UniProt P27467)
# Sequence (P27467 whole entry): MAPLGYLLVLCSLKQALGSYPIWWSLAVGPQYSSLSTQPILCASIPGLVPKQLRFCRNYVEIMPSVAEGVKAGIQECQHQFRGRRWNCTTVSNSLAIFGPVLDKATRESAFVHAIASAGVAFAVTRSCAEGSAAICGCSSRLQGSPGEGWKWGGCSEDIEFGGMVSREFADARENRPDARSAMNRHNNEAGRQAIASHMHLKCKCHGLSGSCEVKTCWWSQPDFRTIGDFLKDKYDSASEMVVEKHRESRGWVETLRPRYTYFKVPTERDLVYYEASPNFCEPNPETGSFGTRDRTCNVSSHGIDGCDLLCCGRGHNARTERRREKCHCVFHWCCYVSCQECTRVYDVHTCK
# Measurement notes: antagonism of Wnt3a pathway luciferase reporter – Wnt-LIGHT cells, luminescence, selectivity assay for Gli-SUFU antagonist project, dose response (AID 651570);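 also: Wnt-LIGHT reporter cells stimulated with conditioned medium from Wnt3a-producing cells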
# Format: functional
# Protocol conditions: read-out: IC50_Mean
The source made the active and inactive calls.
Readout type: IC50

Compound	Experimental result
Cc1ccc(NC(=O)COc2ccccc2C(N)=O)cc1S(=O)(=O)N1CCCCCC1	9.3 µM (active)
CN(Cc1ccc(OCC(O)CN2CCCCC2)cc1)Cc1ccnc2ccccc12 (centres undefined)	3.4 µM (active)
CCOC(=O)c1c(NC(=O)C(=O)N/N=C/c2ccccc2O)sc2c1CCCCC2	6.55 µM (active)
COc1ccc(OC)c(Cc2cnc3nc(N)nc(N)c3c2C)c1 [PIRITREXIM ISETHIONATE]	3.35 µM (active)

====

Known EC50 of a selection of molecules
# Test system: 5-hydroxytryptamine receptor 5A (Homo sapiens, UniProt P47898)
# Sequence (P47898 whole entry): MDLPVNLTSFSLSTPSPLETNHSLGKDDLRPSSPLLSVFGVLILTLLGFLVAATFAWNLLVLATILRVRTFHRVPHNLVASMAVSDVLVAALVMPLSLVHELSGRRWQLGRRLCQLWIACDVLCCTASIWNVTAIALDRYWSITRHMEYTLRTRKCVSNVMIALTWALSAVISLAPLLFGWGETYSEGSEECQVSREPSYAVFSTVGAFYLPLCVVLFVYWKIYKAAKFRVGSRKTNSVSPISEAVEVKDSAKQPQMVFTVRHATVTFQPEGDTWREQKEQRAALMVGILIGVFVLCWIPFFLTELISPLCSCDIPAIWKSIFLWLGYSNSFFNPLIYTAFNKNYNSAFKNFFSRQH
# Measurement notes: Counterscreen for agonists of OPRM1-OPRD1 heterodimerization: luminescence-based cell-based high throughput dose response assay to identify agonists of 5-hydroxytryptamine (serotonin) 5A receptor (HTR5A). [Related pubchem assays (depositor defined):AID504326, AID504355, AID504692, AID504904, AID504905]
# Assay type: functional
Activity calls are given as the source filed them.

Molecule	EC50
CCOC(=O)C1(CCOc2ccccc2)CCN(Cc2cccn2-c2cccnc2)CC1	> 92.5 µM (inactive)
CCC1(C)CC(CCNCc2ccc(N(C)C)cc2)(c2ccc(F)cc2)CCO1 (centres undefined)	> 92.3 µM (inactive)
OCC1(CCc2ccccc2)CCN(Cc2ccccc2Cl)CC1	> 92.4 µM (inactive)
O=C(CSc1ccc(Cl)cc1)Nc1ccc(-c2nc3ccccc3[nH]2)cc1	> 92.5 µM (inactive)

====

AC50 by entry:
# Test system: Cytochrome P450 3A4 (Homo sapiens);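 also: confirmatory qHTS run detecting inhibitors and substrates of CYP3A4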
# Protocol conditions: Potency

Smiles code	Test system	AC50
C[C@H]1C[C@]2(O[C@@H]2C)C(=O)O[C@@H]2CCN(C)C/C=C(/COC(=O)[C@]1(C)O)C2=O	Cytochrome P450 3A4 (Homo sapiens)	25.1 µM (inconclusive)
Cc1ccc(N)cc1Cl	Cytochrome P450 3A4 (Homo sapiens)	12.6 µM (inconclusive)
CCCn1c(C)nc2c(NCCCCN(CC)CC)nc(C)nc21	Cytochrome P450 3A4 (Homo sapiens)	20 µM (inconclusive)
CCC1=C2CC[C@H]3C(=O)N(CC(=O)OC)C(=O)[C@H]3[C@H]2[C@@]2(C)C(=O)N(CC3CC3)C(=O)N2C1=O	Cytochrome P450 3A4 (Homo sapiens)	7.94 µM (inconclusive)

====

The reader will find reported EC50 values listed item by item below.
# Test system: Streptokinase A (Streptococcus pyogenes serotype M1)
# Sequence (P10520 whole entry): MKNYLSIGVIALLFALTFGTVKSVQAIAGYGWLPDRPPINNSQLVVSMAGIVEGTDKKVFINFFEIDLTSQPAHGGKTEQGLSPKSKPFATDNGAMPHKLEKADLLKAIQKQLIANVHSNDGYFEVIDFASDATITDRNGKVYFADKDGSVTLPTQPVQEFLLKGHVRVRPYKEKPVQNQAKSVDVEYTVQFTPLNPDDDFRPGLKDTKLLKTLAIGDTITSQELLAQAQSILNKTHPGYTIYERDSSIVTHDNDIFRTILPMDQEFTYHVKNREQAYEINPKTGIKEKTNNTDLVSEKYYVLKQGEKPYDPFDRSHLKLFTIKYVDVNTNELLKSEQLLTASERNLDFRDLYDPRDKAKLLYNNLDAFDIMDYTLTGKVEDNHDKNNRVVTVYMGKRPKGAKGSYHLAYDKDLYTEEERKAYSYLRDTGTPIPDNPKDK
# Measurement notes: viability-normalized secreted streptokinase activity reduction – plasminogen activation absorbance, OD405, dose response (AID 1914);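 also: secreted streptokinase activity via plasminogen activation per viability signal from cell pellet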
# Type: functional, Streptococcus pyogenes M1 GAS
The source made the active and inactive calls.
Readout type: EC50

Molecule	Experimental result
CCOC(=O)c1c(O)cc(C)cc1Nc1ccccc1	139 µM (active)
OC(C/N=c1\sc2ccccc2n1CC(O)COc1ccccc1)COc1ccccc1 (stereo not drawn)	10.3 µM (active)
Cc1cc2nc(N=C(N)NC(=O)C(C)C)nc(C)c2cc1C	> 150 µM (not active)
CCOC(=O)c1sc(N2C(=O)C(O)=C(C(=O)c3ccco3)C2c2cccc(Cl)c2)nc1C (stereo not drawn)	> 150 µM (not active)
COc1ccc(Sc2ccc(NC(=O)c3ccccc3Cl)cc2C#N)cc1	4.98 µM (active)
COc1cc(NC(=O)CSc2ncnc3sc4c(c23)CCCC4)c(C(=O)O)cc1OC	> 150 µM (not active)
Cc1cc(/C=C2/C(=N)N3C(=NC2=O)SN=C3S(C)(=O)=O)c(C)n1-c1ccc(F)cc1	> 150 µM (not active)
CC(=O)N(C)c1ccc(OCC(O)Cn2c3ccc(Cl)cc3c3cc(Cl)ccc32)cc1 (stereo not drawn)	2.66 µM (active)
COc1cc(/C=C/c2ccc3cccc(O)c3n2)cc(OC)c1OC	> 150 µM (not active)
Cc1nc2ccccc2c(=O)n1/N=C/c1ccc2ccccc2c1O	> 150 µM (not active)
CCCOc1cc(N(CC)CC)ccc1/C=C(/C#N)c1nc2cc(C)ccc2[nH]1	31.9 µM (active)
O=C1N=C(N/N=C/c2cccs2)SC1Cc1ccc(Cl)c(Cl)c1 (stereo not drawn)	> 150 µM (not active)
Cc1noc(C)c1-c1nnc(-c2ccc(OC(F)(F)F)cc2)o1	> 150 µM (not active)

====

EC50: recorded values
# Test system: Short transient receptor potential channel 4 (Mus musculus, UniProt Q9QUQ5)
# Sequence (Q9QUQ5 whole entry): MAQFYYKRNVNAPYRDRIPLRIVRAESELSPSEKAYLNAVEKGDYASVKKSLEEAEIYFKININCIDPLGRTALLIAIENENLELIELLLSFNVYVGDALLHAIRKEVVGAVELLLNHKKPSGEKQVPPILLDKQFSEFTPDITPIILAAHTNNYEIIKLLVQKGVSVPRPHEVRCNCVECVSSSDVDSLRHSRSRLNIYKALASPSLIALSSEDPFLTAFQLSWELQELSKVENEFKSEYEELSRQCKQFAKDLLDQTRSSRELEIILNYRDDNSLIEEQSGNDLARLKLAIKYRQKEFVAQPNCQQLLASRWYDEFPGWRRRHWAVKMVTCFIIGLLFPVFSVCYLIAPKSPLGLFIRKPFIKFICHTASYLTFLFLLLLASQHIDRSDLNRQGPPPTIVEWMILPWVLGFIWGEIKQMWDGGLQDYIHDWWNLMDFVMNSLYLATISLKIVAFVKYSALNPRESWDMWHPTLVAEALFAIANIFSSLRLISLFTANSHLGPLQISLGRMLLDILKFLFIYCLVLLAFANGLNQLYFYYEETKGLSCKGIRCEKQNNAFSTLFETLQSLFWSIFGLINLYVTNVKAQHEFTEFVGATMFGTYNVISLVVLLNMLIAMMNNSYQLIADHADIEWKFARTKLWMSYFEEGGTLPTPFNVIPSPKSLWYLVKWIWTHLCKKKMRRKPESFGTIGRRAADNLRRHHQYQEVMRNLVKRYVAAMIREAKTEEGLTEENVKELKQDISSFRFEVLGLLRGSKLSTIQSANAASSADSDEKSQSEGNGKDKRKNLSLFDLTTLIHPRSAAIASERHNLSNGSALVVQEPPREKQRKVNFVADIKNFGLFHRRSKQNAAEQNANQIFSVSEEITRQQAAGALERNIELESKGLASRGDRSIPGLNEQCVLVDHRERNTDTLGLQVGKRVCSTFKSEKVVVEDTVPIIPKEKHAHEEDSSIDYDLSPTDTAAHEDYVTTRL
# Measurement notes: calcium entry via TRPC4 opening agents – cell-based, HEK293 TRPC4/mu-opioid, Fluo-4 calcium, dose response (AID 434937)
# Format: functional
The source made the active and inactive calls.

Compound	EC50
Cc1cc(Br)ccc1OCCn1ccnc1	3.35 µM (active)
CCC1(C)CC(CCNCc2ccc(N(C)C)cc2)(c2ccc(F)cc2)CCO1 (configuration not stated)	5.96 µM (active)
Cc1cc(OCCCn2ccnc2)cc(C)c1Cl	5.31 µM (active)
CCCc1c(O)nc(SCCN(CC)CC)nc1O	1.68 µM (active)
CN(C)c1ccc(-c2sc(Nc3ccccc3)n[n+]2-c2ccc(F)cc2)cc1	10.6 µM (active)
CCCN(CCC(=O)Nc1cc(OC)cc(OC)c1)CC1CC1	1.33 µM (active)
O=C(NCc1ccccc1)C1=C[C@H](c2ccc3c(c2)OCO3)C[C@H](OCc2ccc(CO)cc2)O1	4.73 µM (active)

====

Form field: IC50 (one value per entry).
# Test system: Sentrin-specific protease 7 (Homo sapiens, UniProt Q9BQF6);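 also: Luminescence-based dose-response confirmation of ultra-high-throughput screening hits, measuring inhibition of SENP7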
# Sequence (Q9BQF6 whole entry): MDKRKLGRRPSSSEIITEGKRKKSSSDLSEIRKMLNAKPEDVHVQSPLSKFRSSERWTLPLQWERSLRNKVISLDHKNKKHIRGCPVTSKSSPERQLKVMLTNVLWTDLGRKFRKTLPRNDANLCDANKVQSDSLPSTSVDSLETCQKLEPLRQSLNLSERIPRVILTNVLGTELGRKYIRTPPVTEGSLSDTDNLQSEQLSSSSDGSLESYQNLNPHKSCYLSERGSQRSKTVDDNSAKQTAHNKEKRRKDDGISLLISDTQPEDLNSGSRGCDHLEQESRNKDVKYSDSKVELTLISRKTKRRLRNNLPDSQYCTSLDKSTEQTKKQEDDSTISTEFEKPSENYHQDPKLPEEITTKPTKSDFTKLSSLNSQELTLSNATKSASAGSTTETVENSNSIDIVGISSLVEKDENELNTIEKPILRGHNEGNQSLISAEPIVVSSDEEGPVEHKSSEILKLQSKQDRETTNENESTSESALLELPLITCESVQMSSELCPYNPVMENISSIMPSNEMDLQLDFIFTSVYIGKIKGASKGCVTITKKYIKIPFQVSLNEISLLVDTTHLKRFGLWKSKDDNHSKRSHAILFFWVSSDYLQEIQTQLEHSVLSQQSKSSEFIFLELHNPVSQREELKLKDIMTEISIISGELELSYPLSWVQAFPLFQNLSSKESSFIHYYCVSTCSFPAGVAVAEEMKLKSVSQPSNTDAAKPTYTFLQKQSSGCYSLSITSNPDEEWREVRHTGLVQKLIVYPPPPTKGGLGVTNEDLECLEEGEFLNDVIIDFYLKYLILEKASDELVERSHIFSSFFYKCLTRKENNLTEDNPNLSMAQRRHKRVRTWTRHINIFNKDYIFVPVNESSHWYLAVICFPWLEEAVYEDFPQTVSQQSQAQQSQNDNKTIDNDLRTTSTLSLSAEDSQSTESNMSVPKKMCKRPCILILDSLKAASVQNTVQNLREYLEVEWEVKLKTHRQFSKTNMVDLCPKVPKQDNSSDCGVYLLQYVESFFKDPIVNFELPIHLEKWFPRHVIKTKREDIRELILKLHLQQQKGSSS
# Format: functional
Calls of active or inactive are those of the source.
Readout type: IC50

Smiles code	Experimental result
O=C(Nc1ccc(Cl)cc1)C1=Cc2ccccc2OC1	5.5 µM (active)
COc1ccc(-c2csc(NC(=O)c3ccco3)n2)cc1	8.46 µM (active)
CC(=O)Nc1nc(COc2ccc3ccccc3c2)cs1	5.88 µM (active)
COc1cccc(-c2nc3ccc([N+](=O)[O-])cc3o2)c1	< 1.55 µM (active)
C[N+](=N[N-]c1cccc([N+](=O)[O-])c1)c1ccccc1	6.72 µM (active)
Cc1ccc(NC2=CC(=O)C(=O)c3ccccc32)cc1	36.7 µM (active)

====

compounds and their reported IC50
# Test system: Trace amine-associated receptor 1 (Homo sapiens, UniProt Q96RJ0);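 also: inhibition of calcium response to PEA at EC80 in Galpha16 coupled cells measured by Fluo-8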
# Sequence (Q96RJ0 whole entry): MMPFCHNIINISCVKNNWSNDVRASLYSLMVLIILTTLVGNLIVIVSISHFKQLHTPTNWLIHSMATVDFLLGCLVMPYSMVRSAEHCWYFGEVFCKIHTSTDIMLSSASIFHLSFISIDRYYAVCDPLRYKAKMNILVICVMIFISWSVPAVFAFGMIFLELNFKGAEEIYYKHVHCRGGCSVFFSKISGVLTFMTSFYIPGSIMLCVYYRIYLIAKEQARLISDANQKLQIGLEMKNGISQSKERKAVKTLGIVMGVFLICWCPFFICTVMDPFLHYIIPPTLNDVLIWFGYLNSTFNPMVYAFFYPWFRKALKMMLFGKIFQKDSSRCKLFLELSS
# Measurement notes: Counterscreen for agonists of the human trace amine associated receptor 1 (hTAAR1): Fluorescence-based cell-based high throughput dose response assay to identify hTAAR1 agonist that also desensitize TAAR1 receptor response.
# Assay type: functional
Active and inactive are the calls of the source.

Smiles code	IC50
N#Cc1c(N)sc2c1CCN(CCc1ccccc1)C2	9.09 µM (active)
Oc1cnnc(Nc2ccccc2)n1	> 29.9 µM (inactive)
Cc1ccccc1-c1nc(CS(=O)(=O)CC(=O)NCCc2ccccc2)c(C)o1	8.58 µM (active)
O=C(N[C@@H](Cc1cccnc1)C(=O)N1CCC[C@H]1C(=O)NCCc1ccccc1Cl)C1CCCC1	3.72 µM (active)

====

# Test system: ATP-dependent molecular chaperone HSP82 (Candida albicans (strain WO-1) (Yeast), UniProt C4YTQ8)
# Sequence (C4YTQ8 whole entry): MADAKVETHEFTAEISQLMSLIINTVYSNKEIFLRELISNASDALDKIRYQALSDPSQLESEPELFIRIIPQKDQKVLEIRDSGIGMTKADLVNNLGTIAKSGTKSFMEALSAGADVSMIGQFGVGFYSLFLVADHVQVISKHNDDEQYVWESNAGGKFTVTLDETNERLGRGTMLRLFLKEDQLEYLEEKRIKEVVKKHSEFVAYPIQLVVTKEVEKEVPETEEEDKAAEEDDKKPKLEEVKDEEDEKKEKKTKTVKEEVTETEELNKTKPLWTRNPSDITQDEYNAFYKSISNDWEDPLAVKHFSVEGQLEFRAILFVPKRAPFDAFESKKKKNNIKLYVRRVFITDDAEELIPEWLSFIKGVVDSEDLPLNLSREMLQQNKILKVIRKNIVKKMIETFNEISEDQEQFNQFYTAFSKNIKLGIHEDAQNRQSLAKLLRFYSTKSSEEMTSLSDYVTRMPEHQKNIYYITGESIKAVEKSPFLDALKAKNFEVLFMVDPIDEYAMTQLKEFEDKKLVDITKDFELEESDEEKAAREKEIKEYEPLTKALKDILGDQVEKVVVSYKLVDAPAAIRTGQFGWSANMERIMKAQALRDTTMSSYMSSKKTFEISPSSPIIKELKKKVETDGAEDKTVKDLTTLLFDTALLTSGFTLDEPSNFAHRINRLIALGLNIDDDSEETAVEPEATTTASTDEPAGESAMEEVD
# Measurement notes: steroid-induced GRE reporter decrease in yeast – S. cerevisiae, luminescence, Hsp90 inhibitor project, dose response (AID 2400);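 also: beta-galactosidase luminescence from glucocorticoid response element reporter as proxy for Hsp90 function; inhibitor potency where signal loss means Hsp90 inhibition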
# Format: functional, cell-based
Calls of active or inactive are those of the source.
Labels: 1 = active, 0 = inactive

Molecule	Category label
Cc1oc2ccc(OC(=O)N(C)C)cc2c1C(=O)OC(C)C	0
O=C1C=CC(=NNc2ccccc2)C=CC1=O	1
CCCCCCC[n+]1ccc(-c2cc[n+](CCCCCCC)cc2)cc1	0
Cc1ccc(NC2=CC(=O)C(=O)c3ccccc32)cc1	1
CCc1cc(C(=O)NC2CCCc3c2cnn3-c2cccc(C)c2C)n(C)n1 (stereo not given)	0

====

# Test system: Delta-type opioid receptor (Homo sapiens, UniProt P41143)
# Sequence (P41143 whole entry): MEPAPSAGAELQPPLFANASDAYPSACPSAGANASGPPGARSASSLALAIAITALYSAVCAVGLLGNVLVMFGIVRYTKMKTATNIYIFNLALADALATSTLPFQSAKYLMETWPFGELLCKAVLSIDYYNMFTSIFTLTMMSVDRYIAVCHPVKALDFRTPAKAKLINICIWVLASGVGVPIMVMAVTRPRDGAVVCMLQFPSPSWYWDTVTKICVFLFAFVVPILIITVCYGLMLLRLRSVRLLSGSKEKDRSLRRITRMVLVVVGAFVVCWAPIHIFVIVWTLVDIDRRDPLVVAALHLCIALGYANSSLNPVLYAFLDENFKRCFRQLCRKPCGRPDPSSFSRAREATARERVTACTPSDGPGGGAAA
# Measurement notes: Counterscreen for agonists of heterodimerization of the mu 1 (OPRM1) and delta 1 (OPRD1) opioid receptors: Luminescence-based cell-based high throughput dose response assay to identify agonists of OPRD1 homodimerization. [Related pubchem assays (depositor defined):AID504326, AID504355, AID504692, AID504904, AID504905]
# Type: functional
Active and inactive are the calls of the source.
Readout type: EC50

Compound	Readout type	Experimental result
O=C(CSc1ccc(Cl)cc1)Nc1ccc(-c2nc3ccccc3[nH]2)cc1	EC50	> 92.5 µM (inactive)
CCC1(C)CC(CCNCc2ccc(N(C)C)cc2)(c2ccc(F)cc2)CCO1 (centres undefined)	EC50	> 92.3 µM (inactive)
OCC1(CCc2ccccc2)CCN(Cc2ccccc2Cl)CC1	EC50	> 92.4 µM (inactive)
CCOC(=O)C1(CCOc2ccccc2)CCN(Cc2cccn2-c2cccnc2)CC1	EC50	> 92.5 µM (inactive)
